- Tested system: SARS-CoV-2 M^pro (Severe acute respiratory syndrome coronavirus 2, UniProt P0DTD1)
- Reported conditions: t=2 minutes vs 2-hour preincubation
Reported fold decrease in IC50, initial vs final inhibition value values are given for each entry in this list.
Value expressed in fold; do not type the unit.

Completed entries (count: 3):
{"Molecule": "COc1ccc(C2CC(c3ccccc3)=NN2C(=O)CCl)cc1OC (stereo not shown) [Compound C]", "Numeric readout": 15}
{"Molecule": "CC(C)CC1CN(C(=O)CCl)CCN1Cc1cccc(Cl)c1 (stereo not shown) [D]", "Numeric readout": 39}
{"Molecule": "O=C(CCl)N1CCN(Cc2cccc3ccccc23)CC1 [Compound A]", "Numeric readout": 54}

Note: attention shifts to another entry.
Tell me the measured fold decrease in IC50, initial vs final inhibition value of O=C(CCl)N1CCN(Cc2cccc(Cl)c2)CC1 [Compound B] , please.
32

====

- Tested system: SARS-CoV-2 M^pro (Severe acute respiratory syndrome coronavirus 2)
- Reported conditions: saturation profile; with SEM
Entries annotated with measured kinact (10^−3 s^−1)

{"Molecule": "COc1ccc(C2CC(c3ccccc3)=NN2C(=O)CCl)cc1OC (stereo not shown) [Compound C]", "Result": "23.5 ± 2.6 10^−3 s^−1"}

What reported kinact (10^−3 s^−1) corresponds to CC(C)CC1CN(C(=O)CCl)CCN1Cc1cccc(Cl)c1 (stereo not shown) [D] on SARS-CoV-2 M^pro (Severe acute respiratory syndrome coronavirus 2)?
≥16.6 10^−3 s^−1

For O=C(CCl)N1CCN(Cc2cccc3ccccc23)CC1 [Compound A] then?
5.1 ± 0.5 10^−3 s^−1

# repeat for O=C(CCl)N1CCN(Cc2cccc(Cl)c2)CC1 [Compound B]
4.2 ± 0.8 10^−3 s^−1

====

- Tested system: SARS-CoV-2 M^pro (Severe acute respiratory syndrome coronavirus 2)
- Reported conditions: read-out: IC50 (μM) - 2 min; 2 min co-incubation of enzyme and inhibitor; with standard deviation
Reported endpoint: IC50
Returns: string containing the numeric result and its unit.

Worked set:
{"Molecule": "O=C(CCl)N1CCN(Cc2cccc3ccccc23)CC1", "Reported endpoint": "IC50", "Result": "16.3 µM"}
{"Molecule": "CC(C)CC1CN(C(=O)CCl)CCN1Cc1cccc(Cl)c1 (stereo not drawn)", "Reported endpoint": "IC50", "Result": "16 µM"}

Need IC50 of O=C(CCl)N1CCN(Cc2cccc(Cl)c2)CC1 , thanks.
12.8 µM

====

- Tested system: SARS-CoV-2 M^pro (Severe acute respiratory syndrome coronavirus 2, UniProt P0DTD1)
- Reported conditions: read-out: IC50 after a 2-hour preincubation; 2-hour preincubation
Reported endpoint: pIC50
API: returns pIC50 as number; meaning -log10 of concentration in mol/L.

# input compound: COc1ccc(C2CC(c3ccccc3)=NN2C(=O)CCl)cc1OC (stereo not shown) ; wanted: its pIC50
6.80

====

- Tested system: SARS-CoV-2 M^pro (Severe acute respiratory syndrome coronavirus 2, UniProt P0DTD1)
Reported endpoint: Ki (µM)
Give the value in µM but do not write µM after it.

Endpoint output: Ki of O=C(CCl)N1CCN(Cc2cccc3ccccc23)CC1 . Value?
11.5
